test.target: βTrCP (Homo sapiens, UniProt Q9Y297)
Sequence (P63208 whole entry partner, one chain of several): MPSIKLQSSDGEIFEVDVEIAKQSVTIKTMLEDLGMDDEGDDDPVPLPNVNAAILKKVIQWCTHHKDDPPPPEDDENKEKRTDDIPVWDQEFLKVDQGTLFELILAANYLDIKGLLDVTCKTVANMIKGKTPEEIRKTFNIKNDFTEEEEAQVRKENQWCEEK
protocol.notes: Fluorescence polarisation (FP) binding assay with fluorescein-tagged IκB peptide
condition.parameters: Table 11, with spread; read-out: FP IC50/μM
Starred links: 1 amine or outer side, 2 acyl side, 3 side chain; linkers in the order of their positions; H or OH if unused. Non-standard residues stand in square brackets, D forms with d. Residues, ends and D or L forms follow the SMILES beside them. *: point of attachment. Phe(3-F) = N[C@@H](Cc1cccc(F)c1)C(=O)O; 1Nal = N[C@@H](Cc1cccc2ccccc12)C(=O)O; Phe(2-F) = N[C@@H](Cc1ccccc1F)C(=O)O; X2 = COc1ccc(S(=O)(=O)*)cc1OC; Suc = O=C(CCC(=O)[*:2])[*:1]
measurement.name: IC50 (µM)
Only the number, expressed in µM, is required.

Prompt: Give IC50 for the following compound: NC(=O)CC[C@H](NC(=O)CCC(=O)O)C(=O)NCC(=O)N[C@@H](Cc1cccc(F)c1)C(=O)N[C@@H](Cc1ccc([N+](=O)[O-])cc1)C(=O)N[C@@H](CCC(=O)O)C(N)=O [UBP012, Suc-QGF(3F)F(4NO2)E-NH2]
Response: 2.56

Prompt: Return the recorded IC50 value; entry: COc1ccc(S(=O)(=O)N[C@H](CC(=O)O)C(=O)N[C@@H](CCC(=O)O)C(=O)NCC(=O)N[C@@H](Cc2cccc(F)c2)C(=O)N[C@@H](Cc2c[nH]c3ccccc23)C(=O)N[C@@H](CCC(=O)O)C(N)=O)cc1OC [UBP029, 3,4-(MeO)2-PhSO2-dEGF(3F)WE-NH2] (X2-[dD]EG[Phe(3-F)]WE-NH2)
Response: 0.042

Prompt: For COc1ccc(C[C@H](NC(=O)[C@H](Cc2ccccc2F)NC(=O)CNC(=O)[C@H](CCC(=O)O)NC(=O)CCC(=O)O)C(=O)N[C@@H](CCC(=O)O)C(N)=O)cc1 [UBP006, Suc-EGF(2F)Y(Me)E-NH2] (Suc-EG[Phe(2-F)]Y(Me)E-NH2) , write its IC50.
Response: 3.28

Prompt: Check the records and state IC50 for NC(=O)[C@H](CCC(=O)O)NC(=O)[C@H](Cc1cccc2ccccc12)NC(=O)[C@H](Cc1cccc(F)c1)NC(=O)CNC(=O)[C@H](CCC(=O)O)NC(=O)CCC(=O)O [UBP010, Suc-EGF(3F)1NalE-NH2] (Suc-EG[Phe(3-F)][1Nal]E-NH2)
Response: 0.157

----------
test.target: Skp2 (Homo sapiens, UniProt Q13309)
Sequence (Q13309 whole entry, species assumed): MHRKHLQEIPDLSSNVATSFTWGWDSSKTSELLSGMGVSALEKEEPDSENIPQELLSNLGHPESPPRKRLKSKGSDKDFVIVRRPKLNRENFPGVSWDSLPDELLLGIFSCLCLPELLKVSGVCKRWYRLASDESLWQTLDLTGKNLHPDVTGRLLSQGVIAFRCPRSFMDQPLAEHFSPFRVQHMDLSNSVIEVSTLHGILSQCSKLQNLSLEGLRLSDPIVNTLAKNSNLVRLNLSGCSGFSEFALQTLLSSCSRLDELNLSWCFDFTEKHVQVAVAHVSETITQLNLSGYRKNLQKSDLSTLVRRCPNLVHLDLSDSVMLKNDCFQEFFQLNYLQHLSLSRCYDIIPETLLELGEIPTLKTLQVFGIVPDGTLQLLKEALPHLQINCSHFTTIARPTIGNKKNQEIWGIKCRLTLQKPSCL
Sequence (P63208 whole entry partner, species assumed): as the sequence (P63208 whole entry partner, one chain of several) above
Sequence (Q13616 whole entry partner, species assumed): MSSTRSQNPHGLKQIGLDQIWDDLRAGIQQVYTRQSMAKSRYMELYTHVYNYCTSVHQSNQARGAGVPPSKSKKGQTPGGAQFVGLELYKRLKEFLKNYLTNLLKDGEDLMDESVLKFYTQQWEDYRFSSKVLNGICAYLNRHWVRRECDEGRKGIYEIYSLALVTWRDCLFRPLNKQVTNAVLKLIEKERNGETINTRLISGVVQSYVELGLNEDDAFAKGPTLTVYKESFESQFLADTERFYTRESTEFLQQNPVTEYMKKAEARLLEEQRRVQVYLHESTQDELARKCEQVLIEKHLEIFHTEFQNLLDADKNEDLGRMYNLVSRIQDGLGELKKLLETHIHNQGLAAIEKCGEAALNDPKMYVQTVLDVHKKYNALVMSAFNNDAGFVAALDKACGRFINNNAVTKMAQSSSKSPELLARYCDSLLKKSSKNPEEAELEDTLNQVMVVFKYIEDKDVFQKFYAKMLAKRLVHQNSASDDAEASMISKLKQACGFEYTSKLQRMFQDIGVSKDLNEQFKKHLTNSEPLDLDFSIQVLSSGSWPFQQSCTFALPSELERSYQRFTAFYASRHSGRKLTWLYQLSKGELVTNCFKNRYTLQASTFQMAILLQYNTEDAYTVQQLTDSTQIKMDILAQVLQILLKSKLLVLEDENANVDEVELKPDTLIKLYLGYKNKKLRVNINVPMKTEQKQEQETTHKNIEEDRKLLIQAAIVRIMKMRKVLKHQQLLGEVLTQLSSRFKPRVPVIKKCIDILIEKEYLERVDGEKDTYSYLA
Sequence (P62877 whole entry partner, species assumed): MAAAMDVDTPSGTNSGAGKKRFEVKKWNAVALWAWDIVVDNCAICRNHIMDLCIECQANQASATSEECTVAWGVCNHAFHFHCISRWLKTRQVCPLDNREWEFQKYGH
protocol.notes: Selectivity assay vs other E3s: Skp2
Assay type: biochemical
condition.parameters: 100 μM, value in brackets; read-out: % Inhibition Skp2 @ (100 μM)
Starred links: 1 amine or outer side, 2 acyl side, 3 side chain; linkers in the order of their positions; H or OH if unused. Non-standard residues stand in square brackets, D forms with d. Residues, ends and D or L forms follow the SMILES beside them. Phe(4-NO2) = N[C@@H](Cc1ccc([N+](=O)[O-])cc1)C(=O)O; Phe(3-F) = N[C@@H](Cc1cccc(F)c1)C(=O)O; 1Nal = N[C@@H](Cc1cccc2ccccc12)C(=O)O; Phe(2-F) = N[C@@H](Cc1ccccc1F)C(=O)O; pS = N[C@@H](COP(=O)(O)O)C(=O)O; Suc = O=C(CCC(=O)[*:2])[*:1]
I'd be grateful if you could share measured inhibition at 100 µM for these entries.
Please give a number only; it is taken to be in %.

Prompt: Determine from records and report inhibition at 100 µM for CC[C@H](C)[C@H](NC(=O)CNC(=O)[C@H](COP(=O)(O)O)NC(=O)[C@@H](N)CC(=O)O)C(=O)N[C@@H](Cc1ccccc1)C(=O)N[C@@H](CCC(=O)O)C(N)=O [UBP001, DpSGIFE-NH2] (H-D[pS]GIFE-NH2)
Response: 13

Prompt: Look up and report measured inhibition at 100 µM for this entry: NC(=O)[C@H](CCC(=O)O)NC(=O)[C@H](Cc1cccc2ccccc12)NC(=O)[C@H](Cc1cccc(F)c1)NC(=O)CNC(=O)[C@H](CCC(=O)O)NC(=O)CCC(=O)O [UBP010, Suc-EGF(3F)1NalE-NH2] (Suc-EG[Phe(3-F)][1Nal]E-NH2)
Response: 12

Prompt: Tell me measured inhibition at 100 µM for COc1ccc(C[C@H](NC(=O)[C@H](Cc2ccccc2F)NC(=O)CNC(=O)[C@H](CCC(=O)O)NC(=O)CCC(=O)O)C(=O)N[C@@H](CCC(=O)O)C(N)=O)cc1 [UBP006, Suc-EGF(2F)Y(Me)E-NH2] (Suc-EG[Phe(2-F)]Y(Me)E-NH2) please.
Response: 4

Prompt: Give inhibition at 100 µM for the following compound: NC(=O)[C@H](CCC(=O)O)NC(=O)[C@H](Cc1cccc2ccccc12)NC(=O)[C@H](Cc1ccc([N+](=O)[O-])cc1)NC(=O)CNC(=O)[C@H](CCC(=O)O)NC(=O)CCC(=O)O [UBP011, Suc-EGF(4NO2)1NalE-NH2] (Suc-EG[Phe(4-NO2)][1Nal]E-NH2)
Response: 6

----------
test.target: β-TrCP1/Skp1 (Homo sapiens, UniProt Q9Y297)
Sequence (Q9Y297 whole entry): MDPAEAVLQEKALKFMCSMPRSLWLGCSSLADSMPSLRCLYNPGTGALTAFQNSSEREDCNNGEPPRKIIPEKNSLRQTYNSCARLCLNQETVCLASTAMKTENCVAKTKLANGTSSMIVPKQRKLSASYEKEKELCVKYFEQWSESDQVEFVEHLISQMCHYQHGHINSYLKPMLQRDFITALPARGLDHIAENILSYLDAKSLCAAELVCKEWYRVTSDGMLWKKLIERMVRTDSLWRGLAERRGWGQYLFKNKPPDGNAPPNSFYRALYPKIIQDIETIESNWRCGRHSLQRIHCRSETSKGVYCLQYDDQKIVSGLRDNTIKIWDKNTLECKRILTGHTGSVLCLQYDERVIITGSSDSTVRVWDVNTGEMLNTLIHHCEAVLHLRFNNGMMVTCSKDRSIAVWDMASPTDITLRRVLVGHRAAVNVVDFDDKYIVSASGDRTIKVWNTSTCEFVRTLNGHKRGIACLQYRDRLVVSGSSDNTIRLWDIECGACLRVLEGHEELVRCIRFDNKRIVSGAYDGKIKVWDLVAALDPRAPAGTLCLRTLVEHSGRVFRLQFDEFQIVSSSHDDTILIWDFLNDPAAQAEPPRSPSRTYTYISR
Sequence (P63208 2-163 partner limits assumed): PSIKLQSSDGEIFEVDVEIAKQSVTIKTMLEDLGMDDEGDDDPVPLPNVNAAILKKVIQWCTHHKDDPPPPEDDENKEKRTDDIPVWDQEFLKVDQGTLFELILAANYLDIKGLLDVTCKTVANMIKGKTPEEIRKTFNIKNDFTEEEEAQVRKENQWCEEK
protocol.notes: βTrCP ubiquitination assay (Ub assay)
Format: biochemical
condition.parameters: 10 μM compound
Non-standard residues stand in square brackets, D forms with d. Residues, ends and D or L forms follow the SMILES beside them. *: point of attachment. 2Naphthylsulfonyl = O=S(=O)(c1ccc2ccccc2c1)*; Phe(3-F) = N[C@@H](Cc1cccc(F)c1)C(=O)O; Bz = O=C(c1ccccc1)*

compound: NC(=O)[C@H](CCC(=O)O)NC(=O)[C@H](Cc1c[nH]c2ccccc12)NC(=O)[C@H](Cc1cccc(F)c1)NC(=O)CNC(=O)[C@H](CCC(=O)O)NC(=O)[C@@H](CC(=O)O)NS(=O)(=O)c1ccc2ccccc2c1 [UBP031, 2-NaphthylSO2-dEGF(3F)WE-NH2] (2Naphthylsulfonyl-[dD]EG[Phe(3-F)]WE-NH2)
Ub Assay 10 μM: reduces/
--
compound: NC(=O)[C@H](CCC(=O)O)NC(=O)[C@H](Cc1c[nH]c2ccccc12)NC(=O)[C@H](Cc1cccc(F)c1)NC(=O)CNC(=O)[C@H](CCC(=O)O)NC(=O)[C@@H](CC(=O)O)NC(=O)c1ccccc1 [UBP018, Bz-dEGF(3F)WE-NH2] (Bz-[dD]EG[Phe(3-F)]WE-NH2)
Ub Assay 10 μM: reduces/

----------
test.target: Skp2 (Homo sapiens, UniProt Q13309)
protocol.notes: Selectivity assay vs other E3s: Skp2
Format: biochemical
condition.parameters: read-out: % Inhibition Skp2 @ 10 μM
Non-standard residues stand in square brackets, D forms with d. Residues, ends and D or L forms follow the SMILES beside them. *: point of attachment. Phe(3-F) = N[C@@H](Cc1cccc(F)c1)C(=O)O; 1Nal = N[C@@H](Cc1cccc2ccccc12)C(=O)O; X1 = CCCCOc1ccc(S(=O)(=O)*)cc1
measurement.name: inhibition at 10 µM (%)
Please reply with the bare figure in % and do not write the unit itself.

Prompt: Item CCCCOc1ccc(S(=O)(=O)N[C@H](CC(=O)O)C(=O)N[C@@H](CCC(=O)O)C(=O)NCC(=O)N[C@@H](Cc2cccc(F)c2)C(=O)N[C@@H](Cc2c[nH]c3ccccc23)C(=O)N[C@@H](CCC(=O)O)C(N)=O)cc1 [UBP030, 4-(BuO)-PhSO2-dEGF(3F)WE-NH2] (X1-[dD]EG[Phe(3-F)]WE-NH2) : provide inhibition at 10 µM
Response: 0

Prompt: Let me know recorded inhibition at 10 µM for CC(=O)N[C@H](CC(=O)O)C(=O)N[C@@H](CCC(=O)O)C(=O)NCC(=O)N[C@@H](Cc1cccc(F)c1)C(=O)N[C@@H](Cc1cccc2ccccc12)C(=O)N[C@@H](CCC(=O)O)C(N)=O [UBP016, Ac-dEGF(3F)1NalE-NH2] (Ac-[dD]EG[Phe(3-F)][1Nal]E-NH2) , thanks.
Response: 0

----------
test.target: Skp2 (Homo sapiens, UniProt Q13309)
protocol.notes: Selectivity assay vs other E3s: Skp2
Assay type: biochemical
condition.parameters: 100 μM, value in brackets; read-out: % Inhibition Skp2 @ (100 μM)
Starred links: 1 amine or outer side, 2 acyl side, 3 side chain; linkers in the order of their positions; H or OH if unused. Non-standard residues stand in square brackets, D forms with d. Residues, ends and D or L forms follow the SMILES beside them. *: point of attachment. Phe(4-NO2) = N[C@@H](Cc1ccc([N+](=O)[O-])cc1)C(=O)O; Benzenesulfonyl(4-OMe) = COc1ccc(S(=O)(=O)*)cc1; Phe(3-F) = N[C@@H](Cc1cccc(F)c1)C(=O)O; Phe(4-F) = N[C@@H](Cc1ccc(F)cc1)C(=O)O; 1Nal = N[C@@H](Cc1cccc2ccccc12)C(=O)O; Suc = O=C(CCC(=O)[*:2])[*:1]; Tos = Cc1ccc(S(=O)(=O)*)cc1; Ethoxycarbonyl = CCOC(=O)*
measurement.name: inhibition at 100 µM (%)
Quick reminder: number only, in %, skip the unit.

Prompt: Give measured inhibition at 100 µM for COc1ccc(S(=O)(=O)N[C@H](CC(=O)O)C(=O)N[C@@H](CCC(=O)O)C(=O)NCC(=O)N[C@@H](Cc2cccc(F)c2)C(=O)N[C@@H](Cc2c[nH]c3ccccc23)C(=O)N[C@@H](CCC(=O)O)C(N)=O)cc1 [4-(MeO)-PhSO2-dEGF(3F)WE-NH2] ({Benzenesulfonyl(4-OMe)}-[dD]EG[Phe(3-F)]WE-NH2) (Skp2 (Homo sapiens, UniProt Q13309)).
Response: 12

Prompt: Write inhibition at 100 µM of NC(=O)[C@H](CCC(=O)O)NC(=O)[C@H](Cc1ccc([N+](=O)[O-])cc1)NC(=O)[C@H](Cc1ccc(F)cc1)NC(=O)CNC(=O)[C@H](CCC(=O)O)NC(=O)CCC(=O)O [UBP005, Suc-EGF(4F)F(4NO2)E-NH2] (Suc-EG[Phe(4-F)][Phe(4-NO2)]E-NH2) ; system used: Skp2 (Homo sapiens, UniProt Q13309)
Response: 0

Prompt: Find the measured inhibition at 100 µM of CCOC(=O)N[C@H](CC(=O)O)C(=O)N[C@@H](CCC(=O)O)C(=O)NCC(=O)N[C@@H](Cc1cccc(F)c1)C(=O)N[C@@H](Cc1c[nH]c2ccccc12)C(=O)N[C@@H](CCC(=O)O)C(N)=O [UBP023, EtO(CO)-dEGF(3F)WE-NH2] (Ethoxycarbonyl-[dD]EG[Phe(3-F)]WE-NH2) with Skp2 (Homo sapiens, UniProt Q13309) as test system.
Response: 4

Prompt: Please report the measured inhibition at 100 µM for NC(=O)[C@H](CCC(=O)O)NC(=O)[C@H](Cc1cccc2ccccc12)NC(=O)[C@H](Cc1ccc(O)cc1)NC(=O)CNC(=O)[C@H](CCC(=O)O)NC(=O)CCC(=O)O [UBP009, Suc-EGY1NalE-NH2] (Suc-EGY[1Nal]E-NH2) tested on Skp2 (Homo sapiens, UniProt Q13309).
Response: 6

Prompt: Enter recorded inhibition at 100 µM with Skp2 (Homo sapiens, UniProt Q13309) for Cc1ccc(S(=O)(=O)N[C@H](CC(=O)O)C(=O)N[C@@H](CC(=O)O)C(=O)NCC(=O)N[C@@H](Cc2cccc(F)c2)C(=O)N[C@@H](Cc2c[nH]c3ccccc23)C(=O)N[C@@H](CC(=O)O)C(N)=O)cc1 [UBP028, Ts-dDGF(3F)WD-NH2] (Tos-[dD]DG[Phe(3-F)]WD-NH2) here.
Response: 14

Prompt: System Skp2 (Homo sapiens, UniProt Q13309). Read-out inhibition at 100 µM. Item CC(=O)N[C@H](CC(=O)O)C(=O)N[C@@H](CCC(=O)O)C(=O)NCC(=O)N[C@@H](Cc1cccc(F)c1)C(=O)N[C@@H](Cc1cccc2ccccc12)C(=O)N[C@@H](CCC(=O)O)C(N)=O [UBP016, Ac-dEGF(3F)1NalE-NH2] (Ac-[dD]EG[Phe(3-F)][1Nal]E-NH2) . Report value.
Response: 7

Prompt: Print Skp2 (Homo sapiens, UniProt Q13309) inhibition at 100 µM for NC(=O)[C@H](CCC(=O)O)NC(=O)[C@H](Cc1ccc([N+](=O)[O-])cc1)NC(=O)[C@H](Cc1ccc(O)cc1)NC(=O)CNC(=O)[C@H](CCC(=O)O)NC(=O)CCC(=O)O [UBP013, Suc-EGYF(4NO2)E-NH2] (Suc-EGY[Phe(4-NO2)]E-NH2) .
Response: 31

Prompt: Provide inhibition at 100 µM, system Skp2 (Homo sapiens, UniProt Q13309), entry NC(=O)[C@H](CCC(=O)O)NC(=O)[C@H](Cc1ccccc1)NC(=O)[C@H](Cc1ccc(O)cc1)NC(=O)CNC(=O)[C@H](CCC(=O)O)NC(=O)CCC(=O)O [UBP007, Suc-EGYFE-NH2] (Suc-EGYFE-NH2)
Response: 28
